Hey, just so you know, these numbers are from patent US20220259288A1.

# tgt: T1, HLA-DRB1*07:01 (human)
# T1 construct: MHC class II molecule; how it was prepared for the assay is not described
# procedure.summary: HLA class II competition binding assay
pIC50: −log10 of the molar value.
measured.endpoint: pIC50

(P) TLTAFGFASADLIEI [ApoB100 peptide 3563.0005]
(Q) IKHIYAISSAALSAS (also called p9; P9) [ApoB100 peptide 3563.0009]
(R) LSQLQTYMIQFDQYI [ApoB100 peptide 3563.0012]
Put the above entries in order of falling pIC50. Write the labels out in the order the request specifies.
R, P, Q
